Entries and their folds of sensitization of doxorubicin, cells expressing MDR1
- measured.target: MDR1 (Homo sapiens)
- Sequence (P08183 whole entry): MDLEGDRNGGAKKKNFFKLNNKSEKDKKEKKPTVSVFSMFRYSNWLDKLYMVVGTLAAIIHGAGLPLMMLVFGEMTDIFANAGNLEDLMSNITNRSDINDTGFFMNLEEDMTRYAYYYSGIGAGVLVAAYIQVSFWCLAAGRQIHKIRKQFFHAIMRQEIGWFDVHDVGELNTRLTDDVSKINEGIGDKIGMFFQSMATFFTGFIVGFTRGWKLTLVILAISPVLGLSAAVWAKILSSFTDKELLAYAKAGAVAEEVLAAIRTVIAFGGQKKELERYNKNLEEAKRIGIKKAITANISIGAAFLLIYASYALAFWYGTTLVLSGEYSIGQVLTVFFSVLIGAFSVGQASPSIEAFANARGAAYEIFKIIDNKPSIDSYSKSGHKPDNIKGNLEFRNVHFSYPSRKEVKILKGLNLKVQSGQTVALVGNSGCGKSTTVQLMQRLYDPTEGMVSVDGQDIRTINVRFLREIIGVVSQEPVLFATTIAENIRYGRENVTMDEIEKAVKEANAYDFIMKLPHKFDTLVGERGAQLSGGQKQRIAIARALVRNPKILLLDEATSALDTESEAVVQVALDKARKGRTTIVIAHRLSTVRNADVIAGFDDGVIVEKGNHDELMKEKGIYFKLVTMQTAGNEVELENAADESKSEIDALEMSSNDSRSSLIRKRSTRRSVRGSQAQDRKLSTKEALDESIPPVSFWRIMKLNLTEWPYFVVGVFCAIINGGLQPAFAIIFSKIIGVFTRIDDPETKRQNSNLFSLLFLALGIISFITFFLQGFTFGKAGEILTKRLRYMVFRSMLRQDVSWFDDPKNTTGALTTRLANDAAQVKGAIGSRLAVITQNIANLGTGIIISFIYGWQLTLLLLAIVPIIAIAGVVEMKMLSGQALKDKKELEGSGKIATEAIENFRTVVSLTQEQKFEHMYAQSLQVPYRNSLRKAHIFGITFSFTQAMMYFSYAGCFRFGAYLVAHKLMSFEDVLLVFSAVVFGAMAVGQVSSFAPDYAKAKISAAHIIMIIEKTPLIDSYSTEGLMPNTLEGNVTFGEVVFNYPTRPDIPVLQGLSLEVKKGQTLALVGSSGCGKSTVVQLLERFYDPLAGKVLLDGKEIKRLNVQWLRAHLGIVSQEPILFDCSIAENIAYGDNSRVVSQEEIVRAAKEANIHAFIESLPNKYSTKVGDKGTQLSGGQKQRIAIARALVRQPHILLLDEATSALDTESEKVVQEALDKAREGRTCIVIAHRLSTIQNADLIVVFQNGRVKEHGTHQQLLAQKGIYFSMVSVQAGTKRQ
- Experimental: Fold of sensitization is calculated as a ratio of LD50 in the presence and in the absence of the inhibitor compound (see FIG. 6). Fold of sensitization again is calculated as the ratio of LD50 in the presence and in the absence of the inhibitor compound (see FIG. 6).
property.name: folds of sensitization of doxorubicin, cells expressing MDR1 (folds)

compound: c1ccc(-c2cn3c4ccccc4nc3n2CCN2CCCCC2)cc1
measured.target: MDR1 (Homo sapiens)
unit.string: folds
measurement: 3.7

compound: CCN(CC)CCCNC(=O)c1cnn2c(C(F)(F)F)cc(-c3ccc(C)cc3)nc12
measured.target: MDR1 (Homo sapiens)
unit.string: folds
measurement: 2.0

compound: CC(Sc1nnc(-c2ccco2)n1-c1ccccc1)C(=O)NC(c1ccccc1)c1ccccc1 (stereo not drawn)
measured.target: MDR1 (Homo sapiens)
unit.string: folds
measurement: 4.6
